Hello, the source for this data is patent US20240174690A1, in case you need it.

# method_summary: Solubility measurement (DMSO solution method), McIlvaine buffer pH 4.5 or 6.8
# Format: physicochemical
# study_conditions: aqueous buffer, kinetic from dmso stock; McIlvaine buffer pH 4.5; DMSO stock diluted to 250 μM; 24 h shaking at ambient temperature; read-out: solubility pH 4.5
# Procedure: The DMSO solution is diluted with an aqueous medium (Mcllvaine buffer with pH=4.5 or 6.8) to a final concentration of 250 μM. After 24 h of shaking at ambient temperature a potentially formed precipitate is removed by filtration. The concentration of the test compound in the filtrate is determined by LC-UV methods by calibrating the signal to the signal of a reference solution with complete dissolution of the test compound in acetonitrile/water (1:1) with known concentration.
value_type: solubility at 24 h (µg/mL)

# smiles_text, unit_abbrev, solubility at 24 h
rows = [
    ("C[C@H](Oc1cc(-n2cnc(C(=O)N(C)C)c2)nc(-c2noc3c2CCC[C@@]32CCCc3sc(N)c(C#N)c32)n1)[C@@H]1CCCN1C", "µg/mL", 123),
    ("C[C@H](Oc1cc(-n2ccnc2)nc(-c2noc3c2CCC[C@@]32CCCc3sc(N)c(C#N)c32)n1)[C@@H]1CCCN1C", "µg/mL", 108),
    ("C[C@H](Oc1cc(-c2cnn(C)n2)nc(-c2noc3c2CCC[C@@]32CCCc3sc(N)c(C#N)c32)n1)[C@@H]1CCCN1C", "µg/mL", 112),
]

[I] C[C@H](Oc1cc(C2=CCOCC2)nc(-c2noc3c2CCC[C@@]32CCCc3sc(N)c(C#N)c32)n1)[C@@H]1CCCN1C
[II] C[C@H](Oc1cc(-n2cnc3cccnc32)nc(-c2noc3c2CCC[C@@]32CCCc3sc(N)c(C#N)c32)n1)[C@@H]1CCCN1C
Which is greater in solubility at 24 h, the first item I or the second item II ? Refer to your chosen item by its label in the answer.
I
(I: 98 µg/mL, II: 7 µg/mL)

====

# System: KRAS G12V-dependent Ba/F3 cells
# method_summary: Ba/F3 proliferation assay, KRAS G12V;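 also: proliferation IC50 in KRAS G12V-dependent Ba/F3 cells read by AlamarBlue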
# Assay type: cell-based
# study_conditions: Mus musculus, BaF3, 72 h, AlamarBlue
pIC50: −log10 of the molar value.
value_type: pIC50

Use the examples below as a reference point.
# compound, recorded_value
rows = [
    ("C[C@H](Oc1cc(N2CCNC3(CC3)C2)nc(-c2onc3c2CCC[C@@]32CCCc3sc(N)c(C#N)c32)n1)[C@@H]1CCCN1C", 6.60),
    ("C[C@H](Oc1cc(-n2cncc3ccnc2-3)nc(-c2onc3c2CCC[C@@]32CCCc3sc(N)c(C#N)c32)n1)[C@@H]1CCCN1C", 8.15),
    ("C[C@H](Oc1cc(N2CC3COCC(C2)N3)nc(-c2noc3c2CCC[C@@]32CCCc3sc(N)c(C#N)c32)n1)[C@@H]1CCCN1C", 5.70),
]

[P] C[C@H](Oc1cc(-n2cc3ccn([C@@H](C)c4ccccn4)c(=O)c3n2)nc(-c2noc3c2CCC[C@@]32CCCc3sc(N)c(C#N)c32)n1)[C@@H]1CCCN1C
[Q] C[C@H](Oc1cc(N2CC(N(C)C)C2)nc(-c2noc3c2CCC[C@@]32CCCc3sc(N)c(C#N)c32)n1)[C@@H]1CCCN1C
[R] C[C@H](Oc1cc(C2COCCO2)nc(-c2noc3c2CCC[C@@]32CCCc3sc(N)c(C#N)c32)n1)[C@@H]1CCCN1C (stereo partly drawn)
Please put the entries in order of rising pIC50. Note for the reader: the ranking is given by listing the labels in the order requested.
Q, R, P
(Q: 6.71, R: 7.57, P: 8.22)
